# Assayed System: human Cav2.2 (Homo sapiens, UniProt Q00975)
# Sequence (Q00975 whole entry): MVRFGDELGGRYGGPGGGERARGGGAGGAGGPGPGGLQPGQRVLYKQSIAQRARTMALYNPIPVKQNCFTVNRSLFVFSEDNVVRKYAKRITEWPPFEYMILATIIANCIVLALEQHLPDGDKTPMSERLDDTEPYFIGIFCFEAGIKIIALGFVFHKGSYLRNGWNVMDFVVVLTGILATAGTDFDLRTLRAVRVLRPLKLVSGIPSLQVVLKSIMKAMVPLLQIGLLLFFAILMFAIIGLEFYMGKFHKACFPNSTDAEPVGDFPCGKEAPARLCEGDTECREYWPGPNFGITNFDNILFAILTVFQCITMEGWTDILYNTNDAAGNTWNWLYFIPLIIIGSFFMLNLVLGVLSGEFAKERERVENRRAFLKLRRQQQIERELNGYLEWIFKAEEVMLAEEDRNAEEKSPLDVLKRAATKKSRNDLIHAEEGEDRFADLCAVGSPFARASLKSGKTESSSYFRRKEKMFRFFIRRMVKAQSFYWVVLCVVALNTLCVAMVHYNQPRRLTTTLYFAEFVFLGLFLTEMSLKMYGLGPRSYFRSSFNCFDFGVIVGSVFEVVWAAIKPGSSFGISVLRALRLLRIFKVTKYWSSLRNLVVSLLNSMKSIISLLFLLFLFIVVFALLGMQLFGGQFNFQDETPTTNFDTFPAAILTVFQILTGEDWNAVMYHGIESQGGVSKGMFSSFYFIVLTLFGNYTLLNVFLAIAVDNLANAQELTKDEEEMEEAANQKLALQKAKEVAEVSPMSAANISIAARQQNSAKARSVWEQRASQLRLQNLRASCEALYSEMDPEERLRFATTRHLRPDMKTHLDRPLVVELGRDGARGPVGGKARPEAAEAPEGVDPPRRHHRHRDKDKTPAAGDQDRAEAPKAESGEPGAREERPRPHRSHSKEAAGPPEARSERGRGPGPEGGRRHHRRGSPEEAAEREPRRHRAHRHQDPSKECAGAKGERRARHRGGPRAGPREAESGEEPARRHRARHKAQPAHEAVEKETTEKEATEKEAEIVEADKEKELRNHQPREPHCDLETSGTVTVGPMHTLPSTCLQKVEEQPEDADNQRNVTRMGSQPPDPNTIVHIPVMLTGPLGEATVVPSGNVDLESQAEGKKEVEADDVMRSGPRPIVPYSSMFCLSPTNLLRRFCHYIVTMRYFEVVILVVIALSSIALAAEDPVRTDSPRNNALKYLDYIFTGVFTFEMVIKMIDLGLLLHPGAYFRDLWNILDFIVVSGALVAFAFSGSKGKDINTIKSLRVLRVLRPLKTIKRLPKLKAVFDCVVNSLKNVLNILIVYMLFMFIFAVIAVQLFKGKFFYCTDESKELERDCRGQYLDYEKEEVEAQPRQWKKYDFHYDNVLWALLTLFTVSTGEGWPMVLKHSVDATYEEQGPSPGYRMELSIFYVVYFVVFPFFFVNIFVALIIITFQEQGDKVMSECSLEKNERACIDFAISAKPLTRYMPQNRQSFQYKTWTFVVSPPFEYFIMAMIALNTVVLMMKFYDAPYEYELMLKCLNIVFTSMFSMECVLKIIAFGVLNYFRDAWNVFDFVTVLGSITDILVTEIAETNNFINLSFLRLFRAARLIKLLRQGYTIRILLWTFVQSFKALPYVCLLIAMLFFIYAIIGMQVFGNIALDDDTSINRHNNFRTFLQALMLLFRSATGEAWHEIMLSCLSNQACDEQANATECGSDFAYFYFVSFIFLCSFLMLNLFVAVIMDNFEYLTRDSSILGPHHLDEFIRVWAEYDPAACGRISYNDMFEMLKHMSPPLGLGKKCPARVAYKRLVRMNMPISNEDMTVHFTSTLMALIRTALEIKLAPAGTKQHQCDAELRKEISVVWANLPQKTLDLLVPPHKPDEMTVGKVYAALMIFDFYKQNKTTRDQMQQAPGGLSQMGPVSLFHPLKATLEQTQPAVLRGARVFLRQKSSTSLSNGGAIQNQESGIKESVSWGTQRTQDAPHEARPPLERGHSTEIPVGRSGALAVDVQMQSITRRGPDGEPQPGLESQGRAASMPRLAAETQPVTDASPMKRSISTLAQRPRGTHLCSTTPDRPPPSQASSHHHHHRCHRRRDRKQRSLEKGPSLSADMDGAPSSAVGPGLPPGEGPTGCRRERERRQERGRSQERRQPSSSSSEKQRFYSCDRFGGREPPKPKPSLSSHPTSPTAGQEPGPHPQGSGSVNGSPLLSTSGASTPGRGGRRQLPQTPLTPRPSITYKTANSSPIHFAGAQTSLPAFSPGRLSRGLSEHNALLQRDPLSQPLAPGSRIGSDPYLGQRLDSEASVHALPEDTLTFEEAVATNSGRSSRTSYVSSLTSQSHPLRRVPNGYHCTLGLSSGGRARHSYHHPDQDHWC
# Sequence (P54289 25-956 partner limits assumed): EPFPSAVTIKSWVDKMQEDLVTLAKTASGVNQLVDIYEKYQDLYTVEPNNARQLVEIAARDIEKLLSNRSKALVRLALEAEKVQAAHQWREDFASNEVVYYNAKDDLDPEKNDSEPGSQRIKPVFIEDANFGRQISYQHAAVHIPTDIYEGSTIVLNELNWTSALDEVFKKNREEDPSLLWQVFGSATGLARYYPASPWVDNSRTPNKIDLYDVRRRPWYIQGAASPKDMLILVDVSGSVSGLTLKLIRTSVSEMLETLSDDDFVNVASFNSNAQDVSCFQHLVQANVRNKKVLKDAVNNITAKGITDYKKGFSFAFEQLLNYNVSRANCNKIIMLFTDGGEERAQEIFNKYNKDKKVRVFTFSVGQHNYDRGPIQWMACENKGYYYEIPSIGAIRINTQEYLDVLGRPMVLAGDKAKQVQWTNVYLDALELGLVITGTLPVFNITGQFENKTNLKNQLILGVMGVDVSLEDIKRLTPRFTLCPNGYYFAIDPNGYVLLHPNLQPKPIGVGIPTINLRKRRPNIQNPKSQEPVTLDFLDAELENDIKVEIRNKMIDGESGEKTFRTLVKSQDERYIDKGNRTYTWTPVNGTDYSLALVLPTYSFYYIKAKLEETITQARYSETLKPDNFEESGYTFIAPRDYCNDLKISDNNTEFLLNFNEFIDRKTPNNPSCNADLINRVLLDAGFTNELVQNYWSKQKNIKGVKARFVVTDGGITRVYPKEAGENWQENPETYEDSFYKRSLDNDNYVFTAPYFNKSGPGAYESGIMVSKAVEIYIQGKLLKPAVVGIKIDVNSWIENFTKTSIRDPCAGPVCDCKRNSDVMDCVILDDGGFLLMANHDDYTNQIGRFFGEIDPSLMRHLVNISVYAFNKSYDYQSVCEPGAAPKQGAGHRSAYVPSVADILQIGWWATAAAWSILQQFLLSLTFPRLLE
# Sequence (P54289 957-1103 partner limits assumed): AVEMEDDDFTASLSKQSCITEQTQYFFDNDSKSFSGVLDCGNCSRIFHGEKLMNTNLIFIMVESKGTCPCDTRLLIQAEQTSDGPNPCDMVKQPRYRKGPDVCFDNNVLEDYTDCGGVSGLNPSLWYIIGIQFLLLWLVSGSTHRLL
# Sequence (P54284 whole entry partner): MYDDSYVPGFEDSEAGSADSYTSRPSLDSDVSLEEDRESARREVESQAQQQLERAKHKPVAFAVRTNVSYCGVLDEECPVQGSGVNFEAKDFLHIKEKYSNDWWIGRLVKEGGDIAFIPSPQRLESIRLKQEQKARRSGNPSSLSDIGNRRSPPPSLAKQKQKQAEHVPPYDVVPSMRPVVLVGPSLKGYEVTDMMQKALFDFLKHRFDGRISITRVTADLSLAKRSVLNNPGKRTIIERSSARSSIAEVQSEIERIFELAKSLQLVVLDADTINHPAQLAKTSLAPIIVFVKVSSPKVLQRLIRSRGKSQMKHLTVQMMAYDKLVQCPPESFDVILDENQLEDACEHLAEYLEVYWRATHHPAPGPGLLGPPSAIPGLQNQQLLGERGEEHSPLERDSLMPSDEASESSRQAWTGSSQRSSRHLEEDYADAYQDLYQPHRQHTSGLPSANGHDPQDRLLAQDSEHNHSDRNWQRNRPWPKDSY
# Assay Remarks: Assessment of calcium channel activity using FLIPR (Ca2+ influx in IMR32 cells)
# Format: cell-based
# Condition Details: read-out: IC50 (μM) or percent inhibition (* indicates 3 minute incubation, otherwise 60 minute); IC50; 60 minute pre-incubation with compound; IMR32 cells, 80 mM KCl depolarization
# Procedure: (i) In Vitro Methods—Assessment of Calcium Channel Activity Using FLIPR: The IMR32 cells were maintained in MEM media containing 10% (v/v) FBS, 1% (v/v) antibiotic/antimitotic, 1% (v/v) sodium pyruvate and 1% (v/v) MEM NEAA. […] To determine the IC50 values, the percent inhibition of the compound at each concentration was determined relative to the activity in the absence of inhibitor, and data was fitted using non-linear regression sigmoidal dose response curve analysis with GraphPad Prism®.
Measured Parameter: IC50 (µM)
One number for each entry, in µM.

O=C(N[C@H]1CC[C@@H]2CN(S(=O)(=O)c3cccc(C(F)(F)F)c3)C[C@@H]21)[C@@H]1Cc2ccccc2CN1 | 1.45
CC(C)C[C@@H](N)C(=O)N[C@@H]1CC[C@H]2CN(Cc3cccc(C(F)(F)F)c3)C[C@H]21 (relative stereo) | 3.94
CN[C@@H](CC(C)C)C(=O)N[C@@H]1CC[C@H]2CN(S(=O)(=O)c3ccccc3)C[C@H]21 | 12.4
CC(C)(C)C(C(=O)N[C@@H]1CC[C@H]2CN(Cc3ccccc3)C[C@H]21)c1ccccc1 (some centres unmarked) | 1.81
CCC[C@H](NC)C(=O)N[C@H]1CC[C@@H]2CN(C(=O)c3cccc(C(F)(F)F)c3)C[C@@H]21 | 10.3

Look at each compound and report its IC50.
1. O=S(=O)(N[C@H]1CC[C@H]2CN(Cc3cccc(C(F)(F)F)c3)C[C@H]21)c1cccc(C(F)(F)F)c1 [Example 187]
2. O=C(N[C@H]1CC[C@H]2CN(C(c3ccccc3)c3ccccc3)C[C@H]21)C(C1CCCCC1)C1CCCCC1
3. CC[C@H](C(=O)N[C@@H]1CC[C@H]2CN(Cc3ccccc3)C[C@H]21)c1ccccc1
4. CN[C@@H](CC(C)C)C(=O)N[C@H]1CC[C@@H]2CN(Cc3cccc(C(F)(F)F)c3)C[C@@H]21

(A)
[1.24, 3.44, 9.75, 8.6]

Could you tell me IC50 for each of these compounds? They are listed below.
1. CC(C)C[C@@H](C(=O)N[C@@H]1CC[C@H]2CNC[C@H]21)N(C)C(=O)OC(C)(C)C
2. CCC[C@H](NC)C(=O)N[C@H]1CC[C@@H]2CN(S(=O)(=O)c3ccc(OC)cc3)C[C@@H]21
3. O=C(N[C@H]1CC[C@H]2CN(Cc3ccc(C(F)(F)F)c(F)c3)C[C@H]21)C(C1CCCCC1)C1CCCCC1
4. O=C(CCCC(c1ccc(F)cc1)c1ccc(F)cc1)N[C@@H]1CC[C@H]2CN(Cc3cccc(C(F)(F)F)c3)C[C@H]21 (relative stereo)
5. CC(C)C[C@H](NS(=O)(=O)C1CC1)C(=O)N[C@@H]1CC[C@H]2CN(Cc3cccc(C(F)(F)F)c3)C[C@H]21

(A)
1. 17.6
2. 11.3
3. 1.35
4. 0.86
5. 2.03

###

Please go through the items and note down their IC50.
# Assayed System: human Cav2.2 (Homo sapiens)
# Assay Remarks: Assessment of calcium channel activity using FLIPR (Ca2+ influx in IMR32 cells)
# Type: cell-based
Answers are plain numbers, in µM.

CN[C@@H](CC(C)(C)C)C(=O)N[C@H]1CC[C@@H]2CN(c3cccc(C(F)(F)F)n3)C[C@@H]21 [Example 587] | 0.39
O=C(N[C@H]1CC[C@@H]2CN(c3ccc(F)c(C(F)(F)F)c3)C[C@@H]21)[C@@H]1C[C@@H](F)CN1 [Example 626] | 4.52
CC[C@H](NC(C)C)C(=O)N[C@H]1CC[C@@H]2CN(c3ccc(C(F)(F)F)cc3)C[C@@H]21 [Example 762] | 5.11
Fc1ccc(-c2nc(CN[C@H]3CC[C@@H]4CN(c5cccc(C(F)(F)F)n5)C[C@@H]43)co2)cc1 [Example 743] | 1
CCC[C@H](NC)C(=O)N[C@@H]1CC[C@H]2CN(Cc3ccc(C(F)(F)F)cc3)C[C@H]21 [Example 371] | 8.88

Hey, quick one: what's IC50 for each of these?
1. CN[C@H](C(=O)N[C@H]1CC[C@@H]2CN(c3ccc(C(F)(F)F)cn3)C[C@@H]21)C(C)C [Example 763]
2. CCC(CC)C(=O)N[C@H]1CC[C@H]2CN(Cc3cccc(C(F)(F)F)c3)C[C@H]21 (relative stereo) [Example 125]
3. Cc1ccc(-c2n[nH]cc2CN[C@H]2CC[C@@H]3CN(c4cccc(C(F)(F)F)n4)C[C@@H]32)cc1 [Example 673]

(A)
1: 12.3; 2: 2.07; 3: 0.74

###

# Assayed System: human Cav2.2 (Homo sapiens)
# Assay Remarks: Assessment of calcium channel activity using FLIPR (Ca2+ influx in IMR32 cells)
# Assay type: cell-based
# Condition Details: read-out: IC50 (μM) or percent inhibition (* indicates 3 minute incubation, otherwise 60 minute); IC50; 60 minute pre-incubation with compound; IMR32 cells, 80 mM KCl depolarization
Exercise: for every item that follows, state its recorded log10 IC50.
Reminder: these figures are log10 of reported IC50, in µM before transformation.

For orientation, consider the following solved cases.
CC(C)C(C(=O)N[C@H]1CC[C@@H]2CN(Cc3ccccc3F)C[C@@H]21)c1ccccc1 (stereo partly shown) | 0.56
CN(C(=O)OC(C)(C)C)[C@@H](CC(C)(C)C)C(=O)N(CC1CC1)[C@H]1CC[C@@H]2CN(S(=O)(=O)c3ccc(C(F)(F)F)cc3)C[C@@H]21 | 0.95
O=S(=O)(N[C@@H]1CC[C@H]2CN(CCCCCC(c3ccc(F)cc3)c3ccc(F)cc3)C[C@H]21)c1cccc(C(F)(F)F)c1 | -0.29
CC(C)C(C(=O)N[C@H]1CC[C@@H]2CN(Cc3ccc(C(C)(C)C)cc3)C[C@@H]21)c1ccccc1 (stereo partly shown) | 0.02
CC(C)C[C@@H](N)C(=O)N[C@@H]1CC[C@@H]2CN(Cc3cccc(C(F)(F)F)c3)C[C@@H]21 (stereo in doubt) | 0.74

Batch lookup, log10 IC50 per entry.
1. O=C(N[C@H]1CC[C@H]2CN(CCCc3ccccc3)C[C@H]21)C(C1CCCCC1)C1CCCCC1
2. CC(C)C[C@H](NS(=O)(=O)c1ccccc1)C(=O)N[C@@H]1CC[C@H]2CN(Cc3cccc(C(F)(F)F)c3)C[C@H]21

(A)
1: 0.23; 2: 0.65

###

Consider the following molecules; for each one, report its IC50.
# Assayed System: human Cav2.2 (Homo sapiens)
# Assay Remarks: Assessment of calcium channel activity using FLIPR (Ca2+ influx in IMR32 cells)
# Type: cell-based
# Condition Details: read-out: IC50 (μM) or percent inhibition (* indicates 3 minute incubation, otherwise 60 minute); IC50; 60 minute pre-incubation with compound; IMR32 cells, 80 mM KCl depolarization
Numbers only, in µM.

CC(C)N[C@@H](CC1CCCCC1)C(=O)N[C@H]1CC[C@@H]2CN(S(=O)(=O)c3ccc(C(F)(F)F)cc3)C[C@@H]21 | 1.49
O=C(N[C@H]1CC[C@@H]2CN(Cc3ccccc3)C[C@@H]21)C(c1ccccc1)C1CCCC1 (stereo partly shown) | 1.51

Below: the item to evaluate.
(Q) Sample O=S(=O)(N[C@@H]1CC[C@H]2CN(Cc3cc(C(F)(F)F)cc(C(F)(F)F)c3)C[C@H]21)c1cccc(C(F)(F)F)c1 — what was its IC50?
(A) 2.27

###

# Assayed System: human Cav2.2 (Homo sapiens, UniProt Q00975)
# Assay Remarks: Assessment of calcium channel activity using FLIPR (Ca2+ influx in IMR32 cells)
# Format: cell-based
# Procedure: (i) In Vitro Methods—Assessment of Calcium Channel Activity Using FLIPR: The IMR32 cells were maintained in MEM media containing 10% (v/v) FBS, 1% (v/v) antibiotic/antimitotic, 1% (v/v) sodium pyruvate and 1% (v/v) MEM NEAA. […] To determine the IC50 values, the percent inhibition of the compound at each concentration was determined relative to the activity in the absence of inhibitor, and data was fitted using non-linear regression sigmoidal dose response curve analysis with GraphPad Prism®.
Measured Parameter: pIC50
Numbers only, as −log10 of the molar value.

Illustrative cases are given below, each with its answer.
CN[C@@H](Cc1ccccc1)C(=O)N[C@H]1CC[C@@H]2CN(S(=O)(=O)c3ccc(C(F)(F)F)cc3Cl)C[C@@H]21 | 5.78
FC(F)(F)c1cccc(N2C[C@H]3CC[C@H](NCc4cc5ccncc5s4)[C@H]3C2)n1 | 6.06
Cc1ccc(C(=O)N[C@H]2CC[C@@H]3CN(c4cccc(C(F)(F)F)n4)C[C@@H]32)o1 | 5.97
O=S(=O)(N[C@H]1CC[C@@H]2CN(c3cccc(C(F)(F)F)n3)C[C@@H]21)c1cccc(Cl)c1 | 5.33
O=C(N[C@H]1CC[C@@H]2CN(c3cccc(C(F)(F)F)n3)C[C@@H]21)[C@@H]1C[C@H](F)CN1 | 5.35

(Q) I have this compound here, CC(C)C[C@H](N[C@H]1CC[C@@H]2CN(c3cccc(C(F)(F)F)n3)C[C@@H]21)C(N)=O , and I need its recorded pIC50.
(A) 5.95
